Reference source for all entries: patent US8361968B2

Target: hOT7T175 (Homo sapiens, UniProt Q969F8, L364H)
Sequence (Q969F8 whole entry L364H): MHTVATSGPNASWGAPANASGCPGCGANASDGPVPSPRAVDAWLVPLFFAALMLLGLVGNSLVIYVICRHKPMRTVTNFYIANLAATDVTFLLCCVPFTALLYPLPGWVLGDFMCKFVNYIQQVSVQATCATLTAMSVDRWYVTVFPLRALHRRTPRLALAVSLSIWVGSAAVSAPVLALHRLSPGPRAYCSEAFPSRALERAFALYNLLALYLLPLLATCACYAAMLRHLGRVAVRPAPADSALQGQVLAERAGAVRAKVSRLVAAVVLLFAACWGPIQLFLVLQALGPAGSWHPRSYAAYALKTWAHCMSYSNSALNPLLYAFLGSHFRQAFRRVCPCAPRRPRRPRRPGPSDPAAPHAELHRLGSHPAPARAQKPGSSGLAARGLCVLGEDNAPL
Assay: hOT7T175 receptor binding activity: binding inhibition of Cy-5-labeled metastin (40-54) on hOT7T175-expressed CHO cells
Description: Assay for hOT7T175 Receptor Binding Activity h0T7T175-Expressed CHO cells were cultured in MEM-cc medium (nucleic acid-free) containing 10% dialyzed serum. The medium was removed and the adherent cells were washed with PBS. Then, PBS containing 5 mM EDTA was added and the cells were scraped from a flask with a cell scraper. […]
Numbered stars: 1 amine (or outer) side, 2 acyl side, 3 side chain; on linkers, the order of the positions; unused ones are H or OH. Square brackets hold non-standard residues; d marks the D form. Peptide text beside a SMILES is read from it. * marks the point of attachment. Propanoyl(3-indol-3-yl) = O=C(CCc1c[nH]c2ccccc12)*; X8 = CNC(=N)NCC[C@H](N[*:1])C(=O)[*:2]; Arg(Me) = CNC(=N)NCCC[C@H](N)C(=O)O; Cha = N[C@@H](CC1CCCCC1)C(=O)O; azaGly = NNC(=O)O
Recorded log10 IC50, one value per entry.
Heads up: the numbers are on a log10 scale; they represent IC50 in nM.

Known log10 IC50 results, listed for orientation:
Query block: Give log10 IC50 for the following compound: CNC(=N)NCCC[C@H](NC(=O)[C@H](CC(C)C)NC(=O)NNC(=O)[C@H](Cc1ccccc1)NC(=O)[C@H](CO)NC(=O)[C@H](CC(N)=O)NC(=O)[C@H](Cc1c[nH]c2ccccc12)NC(=O)[C@@H](CC(N)=O)NC(=O)[C@H](N)Cc1ccc(O)cc1)C(=O)N[C@@H](Cc1ccccc1)C(N)=O
Result block: 1.43

Query block: Give log10 IC50 for the following compound: CC(C)C[C@H](NC(=O)CNC(=O)[C@H](Cc1ccccc1)NC(=O)[C@H](CO)NC(=O)[C@H](CC(N)=O)NC(=O)[C@H](Cc1c[nH]c2ccccc12)NC(=O)[C@H](CC(N)=O)NC(=O)[C@@H](N)Cc1ccc(O)cc1)C(=O)N[C@@H](CCCNC(=N)N)C(=O)N[C@@H](Cc1ccc(N)cc1)C(N)=O
Result block: 2.08

Query block: Give log10 IC50 for the following compound: CNC(=N)NCCC[C@H](NC(=O)[C@H](CC(C)C)NC(=O)NNC(=O)[C@H](Cc1ccccc1)NC(=O)[C@H](CO)NC(=O)[C@H](CC(N)=O)NC(=O)[C@H](Cc1c[nH]c2ccccc12)NC(C)=O)C(=O)N[C@@H](Cc1ccccc1)C(N)=O [Compound No. 272] (Ac-WNSF[azaGly]L[Arg(Me)]F-NH2)
Result block: 2.73

Query block: Give log10 IC50 for the following compound: CNC(=N)NCCC[C@H](NC(=O)[C@H](CC(C)C)NC(=O)CNC(=O)[C@H](Cc1ccccc1)NC(=O)[C@H](CO)NC(=O)[C@H](CC(N)=O)NC(=O)[C@H](CC1CCCCC1)NC(=O)[C@H](CC(N)=O)NC(=O)[C@H](N)Cc1ccc(O)cc1)C(=O)N[C@@H](Cc1ccccc1)C(N)=O [Compound No. 171] (H-[dY]N[Cha]NSFGL[Arg(Me)]F-NH2)
Result block: 2.04

Query block: Give log10 IC50 for the following compound: CC(C)C[C@H](NC(=O)CNC(=O)[C@H](Cc1ccccc1)NC(=O)[C@H](CO)NC(=O)[C@H](CC(N)=O)NC(=O)[C@H](Cc1c[nH]c2ccccc12)NC(=O)[C@H](CC(N)=O)NC(=O)[C@@H](N)Cc1ccc(O)cc1)C(=O)N[C@@H](CCCNC(=N)N)C(=O)N[C@@H](Cc1ccc(Cl)c(Cl)c1)C(N)=O
Result block: 2.67

Query block: Give log10 IC50 for the following compound: CNC(N)=NCCC[C@H](NC(=O)[C@H](CC(C)C)NC(=O)NNC(=O)[C@H](Cc1ccccc1)NC(=O)[C@H](CO)NC(=O)[C@H](CC(N)=O)NC(=O)[C@H](Cc1ccccc1)NC(=O)[C@@H](CC(N)=O)NC(=O)[C@H](N)Cc1ccc(O)cc1)C(=O)N[C@@H](Cc1ccccc1)C(N)=O [Compound No. 257] (H-[dY][dN]FNSF[azaGly]L[Arg(Me)]F-NH2)
Result block: 1.60

Query block: Give log10 IC50 for the following compound: CNC(=N)NCCC[C@H](NC(=O)[C@H](CC(C)C)NC(=O)NNC(=O)[C@H](Cc1ccccc1)NC(=O)[C@H](CO)NC(=O)[C@H](CC(N)=O)NC(=O)[C@@H](N)Cc1c[nH]c2ccccc12)C(=O)N[C@@H](Cc1ccccc1)C(N)=O [Compound No. 271] (H-WNSF[azaGly]L[Arg(Me)]F-NH2; N-terminus assumed)
Result block: 2.08

Query block: Give log10 IC50 for the following compound: CNC(=N)NCC[C@H](NC(=O)[C@H](CC(C)C)NC(=O)CNC(=O)[C@H](Cc1ccccc1)NC(=O)[C@H](CO)NC(=O)[C@H](CC(N)=O)NC(=O)[C@H](Cc1c[nH]c2ccccc12)NC(=O)[C@H](CC(N)=O)NC(=O)[C@@H](N)Cc1ccc(O)cc1)C(=O)N[C@@H](Cc1ccccc1)C(N)=O [Compound No. 311] (H-YNWNSFGL[X8]F-NH2)
Result block: 2.67

Query block: Give log10 IC50 for the following compound: CC(C)[C@H](NC(=O)CNC(=O)[C@H](Cc1ccccc1)NC(=O)[C@H](CO)NC(=O)[C@H](CC(N)=O)NC(=O)[C@H](Cc1c[nH]c2ccccc12)NC(=O)[C@H](CC(N)=O)NC(=O)[C@@H](N)Cc1ccc(O)cc1)C(=O)N[C@@H](CCCNC(=N)N)C(=O)N[C@@H](Cc1ccccc1)C(N)=O [Compound No. 107] (H-YNWNSFGVRF-NH2)
Result block: 2.08

Query block: Give log10 IC50 for the following compound: CNC(=N)NCCC[C@H](NC(=O)[C@H](CC(C)C)NC(=O)NNC(=O)[C@H](Cc1ccccc1)NC(=O)[C@H](CO)NC(=O)[C@H](CC(N)=O)NC(=O)CCc1c[nH]c2ccccc12)C(=O)N[C@@H](Cc1ccccc1)C(N)=O [Compound No. 260] ({Propanoyl(3-indol-3-yl)}-NSF[azaGly]L[Arg(Me)]F-NH2)
Result block: 2.51

Further cases:
Query block: Give log10 IC50 for the following compound: CC(C)C[C@H](NC(=O)[C@H](C)NC(=O)[C@H](Cc1ccccc1)NC(=O)[C@H](CO)NC(=O)[C@H](CC(N)=O)NC(=O)[C@H](Cc1c[nH]c2ccccc12)NC(=O)[C@H](CC(N)=O)NC(=O)[C@@H](N)Cc1ccc(O)cc1)C(=O)N[C@@H](CCCNC(=N)N)C(=O)N[C@@H](Cc1ccccc1)C(N)=O [Compound No. 50] (H-YNWNSFALRF-NH2)
Result block: 2.28

Query block: Give log10 IC50 for the following compound: C/N=C(/NC)NCCC[C@H](NC(=O)[C@H](CC(C)C)NC(=O)CNC(=O)[C@H](Cc1ccccc1)NC(=O)[C@H](CO)NC(=O)[C@H](CC(N)=O)NC(=O)[C@H](Cc1c[nH]c2ccccc12)NC(=O)[C@H](CC(N)=O)NC(=O)[C@@H](N)Cc1ccc(O)cc1)C(=O)N[C@@H](Cc1ccccc1)C(N)=O
Result block: 1.92
